Biological target: T1, Nei (endonuclease VIII) (Escherichia coli, UniProt P50465 2-263)
T1 sequence: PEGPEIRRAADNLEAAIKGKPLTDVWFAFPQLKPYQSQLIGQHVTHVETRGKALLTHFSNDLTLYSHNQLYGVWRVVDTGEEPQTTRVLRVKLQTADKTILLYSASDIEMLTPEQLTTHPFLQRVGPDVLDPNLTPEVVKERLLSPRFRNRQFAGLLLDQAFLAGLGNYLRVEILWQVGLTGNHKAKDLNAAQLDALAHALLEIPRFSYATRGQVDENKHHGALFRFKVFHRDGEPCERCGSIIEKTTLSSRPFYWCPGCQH
Experiment: MST; MST: 50 mM Tris-HCl pH 7.5, 50 mM KCl, 1 mM EDTA, 1 mM DTT, 7% glycerol, 25 C, 10 min, 0.5 uM DNA; authors call Kd values estimates only
Settings: protein: recombinant; tags: none (native form without tags); label: 5'-FAM on strand 2; blunt
experimental readout: pKd
Note on units: pKd is unitless, being -log10 of a concentration expressed in mol/L.

Quick check: pKd of C/G (dsDNA) DNA 1: GCTCACGTACAGAGCTG DNA 2: CAGCTCTGTACGTGAGC ?
5.51
